target: glucokinase (GK), residues 12-465 of the human enzyme (Homo sapiens, UniProt P35557); construct: I.D. No. 1 corresponds to residues 12-465 of glucokinase; test: Enzymatic glucokinase activity assay (KinaseGlo luminescence, ATP consumption); conditions: GK activation; 5 μM ATP, 5 mM Glucose; Kact = concentration giving 50% of the maximal increase in GK activity; read-out: pKact
pEC50: −log10 of the molar value.
assay_metric: pEC50

[[record]]
structure_string = "Cc1ccc(S(=O)(=O)N2CCN([C@@H](CC3CCCCC3)C(=O)Nc3nccs3)C(=O)C2)cc1Cl"
assay_metric = "pEC50"
result = "5.90 to 6.10"

[[record]]
structure_string = "O=C(Nc1nccs1)[C@H](CC1CCCCC1)N1CCN(C(=O)Nc2cccc3ccccc23)CC1=O"
assay_metric = "pEC50"
result = "≤ 5.50"

[[record]]
structure_string = "NS(=O)(=O)c1ccc(NC(=S)N2CCN([C@@H](CC3CCCCC3)C(=O)Nc3nccs3)C(=O)C2)cc1"
assay_metric = "pEC50"
result = "5.60 to 5.80"

[[record]]
structure_string = "N#Cc1ccc(S(=O)(=O)N2CCN([C@@H](CC3CCCCC3)C(=O)Nc3nccs3)C(=O)C2)cc1"
assay_metric = "pEC50"
result = "5.60 to 5.80"

[[record]]
structure_string = "O=C(Nc1nccs1)[C@H](CC1CCCCC1)N1CCN(S(=O)(=O)c2ccccc2)CC1=O"
assay_metric = "pEC50"
result = "≥ 6.20"

[[record]]
structure_string = "Cc1ccccc1S(=O)(=O)N1CCN([C@@H](CC2CCCCC2)C(=O)Nc2nccs2)C(=O)C1"
assay_metric = "pEC50"
result = "5.90 to 6.10"

[[record]]
structure_string = "Cc1cc(S(=O)(=O)N2CCN([C@@H](CC3CCCCC3)C(=O)Nc3nccs3)C(=O)C2)c(C)s1"
assay_metric = "pEC50"
result = "≥ 6.20"


----------
The entries below come with measured pEC50 values attached.
Target: glucokinase (GK), residues 12-465 of the human enzyme (Homo sapiens, UniProt P35557)
Construct: I.D. No. 1 corresponds to residues 12-465 of glucokinase
Sequence (P35557 with tags, fused parts or gaps isoform P35557-2): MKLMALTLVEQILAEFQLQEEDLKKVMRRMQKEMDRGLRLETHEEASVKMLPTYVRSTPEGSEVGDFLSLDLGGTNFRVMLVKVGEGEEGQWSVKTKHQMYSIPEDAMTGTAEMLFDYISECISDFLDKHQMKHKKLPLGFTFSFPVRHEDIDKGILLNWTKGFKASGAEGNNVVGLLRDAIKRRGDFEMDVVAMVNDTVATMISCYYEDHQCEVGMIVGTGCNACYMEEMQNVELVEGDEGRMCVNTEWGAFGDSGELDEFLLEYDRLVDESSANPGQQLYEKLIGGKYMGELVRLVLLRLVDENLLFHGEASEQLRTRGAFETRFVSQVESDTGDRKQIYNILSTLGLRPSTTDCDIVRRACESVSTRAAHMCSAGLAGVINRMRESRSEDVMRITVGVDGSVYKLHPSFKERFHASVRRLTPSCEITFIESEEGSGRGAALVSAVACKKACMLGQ
Assay: Enzymatic glucokinase activity assay (KinaseGlo luminescence, ATP consumption)
Details: GK activation; 5 μM ATP, 5 mM Glucose; Kact = concentration giving 50% of the maximal increase in GK activity; read-out: pKact
pEC50: −log10 of the molar value.
assay_metric: pEC50

[[record]]
compound = "O=C(Nc1nccs1)[C@H](CC1CCCCC1)N1CCN(S(=O)(=O)c2ccc(C(F)(F)F)cc2)CC1=O"
assay_metric = "pEC50"
result = "5.90 to 6.10"

[[record]]
compound = "O=C(Nc1nccs1)[C@H](CC1CCCCC1)N1CCN(S(=O)(=O)c2cc(F)cc(F)c2)CC1=O"
assay_metric = "pEC50"
result = "≥ 6.20"

[[record]]
compound = "O=C(Nc1nccs1)[C@H](CC1CCCCC1)N1CCN(C(=S)Nc2ccc(OC(F)F)cc2)CC1=O"
assay_metric = "pEC50"
result = "≤ 5.50"

[[record]]
compound = "Cc1nc(S(=O)(=O)N2CCN([C@@H](CC3CCCCC3)C(=O)Nc3nccs3)C(=O)C2)cn1C"
assay_metric = "pEC50"
result = "5.90 to 6.10"

[[record]]
compound = "Cc1cc(S(=O)(=O)N2CCN([C@@H](CC3CCCCC3)C(=O)Nc3nccs3)C(=O)C2)c(Cl)cc1Cl"
assay_metric = "pEC50"
result = "5.60 to 5.80"

[[record]]
compound = "O=C(Nc1nccs1)[C@H](CC1CCCCC1)N1CCN(C(=O)Nc2ccc(C(F)(F)F)cc2)CC1=O"
assay_metric = "pEC50"
result = "≤ 5.50"

[[record]]
compound = "O=C(Nc1nccs1)[C@H](CC1CCCCC1)N1CCN(C(=O)Nc2ccc3sccc3c2)CC1=O"
assay_metric = "pEC50"
result = "≤ 5.50"

[[record]]
compound = "O=C(Nc1nccs1)[C@H](CC1CCCCC1)N1CCN(C(=O)Nc2ccc3c(c2)OCCO3)CC1=O"
assay_metric = "pEC50"
result = "≤ 5.50"

[[record]]
compound = "O=C(Nc1nccs1)[C@H](CC1CCCCC1)N1CCN(S(=O)(=O)c2cccc(F)c2)CC1=O"
assay_metric = "pEC50"
result = "≥ 6.20"

[[record]]
compound = "Cc1ccc(S(=O)(=O)N2CCN([C@@H](CC3CCCCC3)C(=O)Nc3nccs3)C(=O)C2)c(F)c1"
assay_metric = "pEC50"
result = "≥ 6.20"

[[record]]
compound = "O=C(Nc1nccs1)[C@H](CC1CCCCC1)N1CCN(S(=O)(=O)c2cc(Cl)c(Cl)cc2Cl)CC1=O"
assay_metric = "pEC50"
result = "5.60 to 5.80"

[[record]]
compound = "O=C(Nc1nccs1)[C@H](CC1CCCCC1)N1CCN(S(=O)(=O)c2ccc(Cl)c(Cl)c2Cl)CC1=O"
assay_metric = "pEC50"
result = "5.90 to 6.10"

[[record]]
compound = "O=C(Nc1nccs1)[C@H](CC1CCCCC1)N1CCN(S(=O)(=O)Cc2ccccc2)CC1=O"
assay_metric = "pEC50"
result = "≥ 6.20"

[[record]]
compound = "O=C(Nc1nccs1)[C@H](CC1CCCCC1)N1CCN(S(=O)(=O)c2ccc(Br)c(Br)c2)CC1=O"
assay_metric = "pEC50"
result = "5.90 to 6.10"

[[record]]
compound = "O=C(Nc1nccs1)[C@H](CC1CCCCC1)N1CCN(S(=O)(=O)CCC(F)(F)F)CC1=O"
assay_metric = "pEC50"
result = "5.90 to 6.10"

[[record]]
compound = "O=C(Nc1nccs1)[C@H](CC1CCCCC1)N1CCN(C(=S)Nc2ccc(Cl)cc2)CC1=O"
assay_metric = "pEC50"
result = "≤ 5.50"

[[record]]
compound = "O=C(Nc1nccs1)[C@H](CC1CCCCC1)N1CCN(S(=O)(=O)C2CC2)CC1=O [Example 2]"
assay_metric = "pEC50"
result = "≥ 6.20"

[[record]]
compound = "O=C(Nc1nccs1)[C@H](CC1CCCCC1)N1CCN(S(=O)(=O)Cc2ccc(F)cc2)CC1=O"
assay_metric = "pEC50"
result = "5.90 to 6.10"

[[record]]
compound = "Cc1ccc(F)cc1S(=O)(=O)N1CCN([C@@H](CC2CCCCC2)C(=O)Nc2nccs2)C(=O)C1"
assay_metric = "pEC50"
result = "≥ 6.20"

[[record]]
compound = "CC(=O)N1CCC(CC(C(=O)Nc2nccs2)N2CCN(S(=O)(=O)C3CC3)CC2=O)C1 (stereo not drawn)"
assay_metric = "pEC50"
result = "5.90 to 6.10"

[[record]]
compound = "O=C(Nc1nccs1)[C@H](CC1CCCCC1)N1CCN(C(=S)Nc2ccc(F)cc2)CC1=O"
assay_metric = "pEC50"
result = "≤ 5.50"

[[record]]
compound = "N#Cc1cc(S(=O)(=O)N2CCN([C@@H](CC3CCCCC3)C(=O)Nc3nccs3)C(=O)C2)ccc1F"
assay_metric = "pEC50"
result = "5.60 to 5.80"

[[record]]
compound = "O=C(Nc1nccs1)[C@H](CC1CCCCC1)N1CCN(S(=O)(=O)c2ccccc2C(F)(F)F)CC1=O"
assay_metric = "pEC50"
result = "≥ 6.20"

[[record]]
compound = "O=C(Nc1nccs1)[C@H](CC1CCCCC1)N1CCN(S(=O)(=O)c2ccc(F)cc2)CC1=O"
assay_metric = "pEC50"
result = "5.90 to 6.10"

[[record]]
compound = "Cc1oncc1S(=O)(=O)N1CCN([C@@H](CC2CCCCC2)C(=O)Nc2nccs2)C(=O)C1"
assay_metric = "pEC50"
result = "5.90 to 6.10"

[[record]]
compound = "O=C(Nc1nccs1)[C@H](CC1CCCCC1)N1CCN(C(=O)NCc2ccc(Cl)cc2)CC1=O"
assay_metric = "pEC50"
result = "≤ 5.50"

[[record]]
compound = "Cc1cc(S(=O)(=O)N2CCN([C@@H](CC3CCCCC3)C(=O)Nc3nccs3)C(=O)C2)c(C)cc1Cl"
assay_metric = "pEC50"
result = "≥ 6.20"

[[record]]
compound = "N#Cc1ccc(NC(=S)N2CCN([C@@H](CC3CCCCC3)C(=O)Nc3nccs3)C(=O)C2)cc1"
assay_metric = "pEC50"
result = "5.90 to 6.10"

[[record]]
compound = "O=C(Nc1ncc(Cl)s1)[C@H](CC1CCOCC1)N1CCN(S(=O)(=O)C2CC2)CC1=O"
assay_metric = "pEC50"
result = "5.90 to 6.10"

[[record]]
compound = "COc1ccc(S(=O)(=O)N2CCN([C@@H](CC3CCCCC3)C(=O)Nc3nccs3)C(=O)C2)cc1"
assay_metric = "pEC50"
result = "5.90 to 6.10"

